# assayed_system: hT2R54 (Homo sapiens, UniProt P59534)
# Construct: expressed in transfected cells; it overexpresses a promiscuous G protein
# Sequence (P59534 whole entry): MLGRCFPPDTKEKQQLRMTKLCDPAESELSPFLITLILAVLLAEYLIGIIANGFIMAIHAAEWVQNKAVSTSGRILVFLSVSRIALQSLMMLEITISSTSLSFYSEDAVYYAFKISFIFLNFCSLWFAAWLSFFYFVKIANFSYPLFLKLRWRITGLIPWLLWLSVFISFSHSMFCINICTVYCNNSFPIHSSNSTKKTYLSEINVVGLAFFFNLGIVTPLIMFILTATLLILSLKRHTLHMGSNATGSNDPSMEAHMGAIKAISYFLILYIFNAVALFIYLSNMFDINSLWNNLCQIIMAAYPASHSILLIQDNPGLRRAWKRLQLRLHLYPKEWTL
# assay_procedure: Cell-based assay for measuring hT2R54 inhibition (FLIPR calcium, Fluo4AM, acetaminophen as bitter agonist)
# conditions: Table 2; cells stably expressing hT2R54 and a promiscuous G protein; read-out: hT2R54 IC50
Reported pIC50 values for the following compounds.
Remember, pIC50 is on a log scale: it is -log10 of the molar concentration.

>>> numeric_value("CC(=O)c1cc2c(cc1NC(=O)CN1CCN(C(=O)[C@H]3CCC(=O)O3)CC1)OCCO2")
7.30
>>> numeric_value("COc1cc2c(cc1NC(=O)CN1CCN(C(=O)Cc3ccccc3O)CC1)OCO2")
6.37

Proceed to the following item.
Look up pIC50 for this compound: "CC(=O)c1cc2c(cc1NC(=O)CN1CCN(C(=O)c3cocn3)CC1)OCO2"
6.97
